Listing of recorded pIC50 by entry.
System: CEM cells HIV-1 protection, formazan growth assay
Experiment: NCI AIDS Antiviral Assay
Details: measured here: growth of uninfected CEM cells
pIC50: −log10 of the molar value.
result-type: pIC50

* O=c1c2cc(Br)ccc2ncn1COCc1ccccc1 | 4.05
* OC1(CN2CCCCC2)N=C(c2ccccc2)c2ccsc2-n2cccc21 (configuration not stated) | 3.93
* CCCCCCc1cc2c(O)c(C(c3ccccc3)c3c(O)c4cc(CCCCCC)c(O)cc4oc3=O)c(=O)oc2cc1O | 5.25
* CCN(CC)CCNc1ccc2ncn3c4cc(OC)c(OC)c(=O)c4c(O)c1c23 | 6.23
* Cc1c(O)c(OC2OC(CO)C(O)C(O)C2O)cc2c1C=C[C@@H]1[C@@]2(C)C(=O)C[C@]2(C)[C@@H]([C@@](C)(O)C(=O)CCC(C)(C)O)[C@H](O)C[C@@]12C (some centres not stated) | 4.03
* C=C(C)[C@H]1C2=CC(C(=O)OC)=C(C[C@H](C(=C)C)[C@@H](O)[C@@H](O)C3=C[C@H]1OC3=O)O2 | 4.03
* C=C[C@]1(C)CC[C@]2(C)C(CC[C@@]3(C)C2C[C@H](O)[C@H](O)[C@@]3(C)O)C1 (some centres not stated) | 3.85
* COc1ccc2c(c1)OC[C@@H]1c3cc(O)c4c(OCc5ccccc5)cccc4c3O[C@H]21 | 4.17
* NC(=O)CCCCNC(=O)c1ccccc1SC(=O)CCCC[n+]1ccccc1 | 4.97
* CC(=O)Oc1c(C)cc2c(c1C)C(C)(C)CN2C(=O)C(C)(C)C | 4.18
* Cc1oc2cc(O)cc(O)c2c(=O)c1C | 3.81
* C=C(Br)C[N+]12CN3CN(CN(C3)C1)C2 | 4.26
* O=c1c2ccccc2[se]n1-c1ccccn1 | 4.79
* O=C1C=CC(=O)c2c1ccc1c3ccccc3n(Cc3ccc([N+](=O)[O-])cc3)c21 | 5.55
* O=C1c2cccc3cccc(c23)C(=O)N1CCO | 4.86
* Nc1nc(Cl)cc(Nc2ccc3c(c2)CCC3)n1 | 4.65
* Cc1cc(=O)[nH]c(NN2C(Cl)C(=O)C2c2ccc([N+](=O)[O-])cc2)n1 (configuration not stated) | 5.07
* COc1cc(/C=C\c2ccc(SC)cc2)cc(OC)c1OC | 7.14
* CC#CCCC1CCCCN(C(=O)OC(C)(C)C)C1OCC (configuration not stated) | 4.23
* Cc1ccc(S(=O)c2cccs2)cc1 (configuration not stated) | 3.74
* O=C1OCN(c2ccccc2)C12CCN(Cc1ccccc1)CC2 | 4.54
* CN1Cc2cc(O)c(O)cc2C(O)C1 (configuration not stated) | 3.99
* CSS(=O)(=O)C(c1ccccc1)c1ccccc1 | 4.31

###

Listing of recorded pIC50 by entry.
Tested on: CEM cells HIV-1 protection, formazan growth assay
Assay: NCI AIDS Antiviral Assay
Settings: measured here: growth of uninfected CEM cells
pIC50: −log10 of the molar value.
result-type: pIC50

* Cc1nc(C)c(Cc2ccccc2)o1 | < 3.70
* CCOP(=O)(OCC)C(C#N)Cc1ccco1 (stereo not drawn) | < 3.70
* CCOC(=O)/C(O)=C(/C(=O)OC)c1ccc(Cl)cc1 | < 3.37
* O=C(Oc1ccccc1)c1cccc(C(=O)Oc2ccccc2)c1 | < 4.79
* O=C1C(CN(Cc2ccccc2)Cc2ccccc2)CCCC1CN(Cc1ccccc1)Cc1ccccc1 (stereo not drawn) | < 4.58
* COc1c2c(c(OC)c3c1C(=O)c1ccccc1C3=O)C(=O)CCC2 | < 5.09
* CCN(CC)CC1CCCCN1CC(=O)N1c2ccc(Br)cc2C(=O)Nc2cccnc21 (stereo not drawn) | < 3.70
* Cc1cc2c(cc1C)NC(=O)CC(c1ccccc1)=N2 | < 3.70
* COc1ccc2c(c1)OC(=O)C(S(=O)(=O)c1ccccc1)C2 (stereo not drawn) | < 3.53
* O=C1Nc2cnc(Cl)nc2Nc2cc(Cl)ccc21 | < 3.70
* COC(=O)C1CCCC2(C1)OCCO2 (stereo not drawn) | < 3.60
* Cc1ccc(S(=O)(=O)OC2C(O)C(CO)OC2n2c(Br)c(C(N)=O)c3c(N)ncnc32)cc1 (stereo not drawn) | < 3.70
* O=C(c1ccccc1)c1cccc(C(=O)c2ccccc2)c1 | < 4.60
* CCCCNC(=O)OCCN=c1c2ccccc2ccc2ccccc12 | < 3.70
* Clc1ccc(OCC(COc2ccccc2)Oc2nc(-c3ccccc3)nc(-c3ccccc3)n2)cc1 (stereo not drawn) | < 5.41
* O=C(OCCN1CCCC1)c1cc2ccccc2[nH]1 | < 4.00
* COC(=O)/N=c1\cc(N2CC=CCC2)nc(N)n1O | < 3.70
* Cc1sc2ncnc(N)c2c1C | < 3.56
* C=CC[C@@]1(C#N)C[C@H](C[C@]2(C#N)C[C@H](CCl)OC(C)(C)O2)OC(C)(C)O1 | 3.97
* [N-]=[N+]=Nc1ccc2c(c1)Sc1ccccc1N2CCCCN1CCN(Cc2ccc(C(=O)c3ccc(CSCC(N)C(=O)O)cc3)cc2)CC1 (stereo not drawn) | 4.49
* O=C(NC1=NCC(CN2CCN(c3ccccc3)CC2)O1)Nc1ccccc1 (stereo not drawn) | 3.81
* CCCCCCNCCCNc1c2ccccc2nc2cccc([N+](=O)[O-])c12 | 6.86
* Nc1nc(C(=O)O)c(N)c(=O)[nH]1 | < 3.70
